For each of the molecules below, state its kidney uptake.
test-summary: Biodistribution in rats
Assay type: in vivo, male Sprague-Dawley rats
stated-conditions: rat, iv, 60 min p.i., mean ± SD, n = 4
Please respond with the number in %ID/g and leave the unit unwritten.

Exam item: Retrieve kidney uptake measured for Cn1cc(-c2ccncc2)c(-c2ccc(OCc3nc4ccccc4cc3OCC[18F])cc2)n1 [[^18F]20a] and print it.
Marked response: 0.841

Exam item: Quick one: give measured kidney uptake for Cn1cc(-c2ccncc2)c(-c2ccc(OCc3cc(C[18F])c4ccccc4n3)cc2)n1 [[^18F]18b]
Marked response: 0.573

Exam item: Answer with the recorded kidney uptake of Cn1cc(-c2ccncc2)c(-c2ccc(OCc3cc(OCCOCCOCC[18F])c4ccccc4n3)cc2)n1 [[^18F]18g] only.
Marked response: 1.037

Exam item: Supply kidney uptake value. Item: Cn1cc(-c2ccncc2)c(-c2ccc(OCc3cc(OCC[18F])c4ccccc4n3)cc2)n1 [[^18F]18d]
Marked response: 0.765

Exam item: Recall and state the measured kidney uptake for Cn1cc(-c2ccncc2)c(-c2ccc(OCc3cc([18F])c4ccccc4n3)cc2)n1 [[^18F]18a] .
Marked response: 0.533

Exam item: Identify kidney uptake associated with the molecule Cn1cc(-c2ccncc2)c(-c2ccc(OCc3cc(CCC[18F])c4ccccc4n3)cc2)n1 [[^18F]18c]
Marked response: 1.216

Exam item: Kindly indicate its recorded kidney uptake. Item: Cn1cc(-c2ccncc2)c(-c2ccc(OCc3cc(COCC[18F])c4ccccc4n3)cc2)n1 [[^18F]18e]
Marked response: 0.485

* * *

test-summary: Biodistribution in rats
Type: in vivo, male Sprague-Dawley rats
stated-conditions: rat, iv, 5 min p.i., mean ± SD, n = 4
Give brain uptake for every item shown.
Reply numerically in %ID/g, unit not repeated.

Exam item: Let me know recorded brain uptake for Cn1cc(-c2ccncc2)c(-c2ccc(OCc3cc([18F])c4ccccc4n3)cc2)n1 [[^18F]18a] , thanks.
Marked response: 0.410

Exam item: Output measured brain uptake for this item: Cn1cc(-c2ccncc2)c(-c2ccc(OCc3cc(COCC[18F])c4ccccc4n3)cc2)n1 [[^18F]18e]
Marked response: 0.213

Exam item: Please look at this molecule and report its brain uptake: Cn1cc(-c2ccncc2)c(-c2ccc(OCc3cc(OCCOCCOCC[18F])c4ccccc4n3)cc2)n1 [[^18F]18g]
Marked response: 0.353

Exam item: For Cn1cc(-c2ccncc2)c(-c2ccc(OCc3cc(CCC[18F])c4ccccc4n3)cc2)n1 [[^18F]18c] , write its brain uptake.
Marked response: 0.114

Exam item: Supply measured brain uptake of Cn1cc(-c2ccncc2)c(-c2ccc(OCc3cc(C[18F])c4ccccc4n3)cc2)n1 [[^18F]18b] in your reply.
Marked response: 0.128

Exam item: For the molecule Cn1cc(-c2ccncc2)c(-c2ccc(OCc3nc4ccccc4cc3OCC[18F])cc2)n1 [[^18F]20a] , give its measured brain uptake value.
Marked response: 0.092

Exam item: Please report brain uptake for the following molecule: Cn1cc(-c2ccncc2)c(-c2ccc(OCc3cc(OCC[18F])c4ccccc4n3)cc2)n1 [[^18F]18d]
Marked response: 0.118

* * *

Please respond with reported bone uptake for every item in the list.
test-summary: Biodistribution in rats
Assay type: in vivo, male Sprague-Dawley rats
stated-conditions: rat, iv, 5 min p.i., mean ± SD, n = 4

Exam item: Recall and state the measured bone uptake for Cn1cc(-c2ccncc2)c(-c2ccc(OCc3cc(OCC[18F])c4ccccc4n3)cc2)n1 [[^18F]18d] .
Marked response: 0.189 ± 0.004 %ID/g

Exam item: Supply measured bone uptake of Cn1cc(-c2ccncc2)c(-c2ccc(OCc3cc(OCCOCCOCC[18F])c4ccccc4n3)cc2)n1 [[^18F]18g] in your reply.
Marked response: 0.487 ± 0.044 %ID/g

Exam item: Return reported bone uptake. Input compound: Cn1cc(-c2ccncc2)c(-c2ccc(OCc3nc4ccccc4cc3OCC[18F])cc2)n1 [[^18F]20a]
Marked response: 0.182 ± 0.003 %ID/g

Exam item: Determine from records and report bone uptake for Cn1cc(-c2ccncc2)c(-c2ccc(OCc3cc(C[18F])c4ccccc4n3)cc2)n1 [[^18F]18b]
Marked response: 0.421 ± 0.063 %ID/g

Exam item: Given the compound Cn1cc(-c2ccncc2)c(-c2ccc(OCc3cc(CCC[18F])c4ccccc4n3)cc2)n1 [[^18F]18c] , write its reported bone uptake.
Marked response: 0.222 ± 0.014 %ID/g

Exam item: Please supply the value of reported bone uptake for the item Cn1cc(-c2ccncc2)c(-c2ccc(OCc3cc(COCC[18F])c4ccccc4n3)cc2)n1 [[^18F]18e]
Marked response: 0.133 ± 0.028 %ID/g

Exam item: Item Cn1cc(-c2ccncc2)c(-c2ccc(OCc3cc([18F])c4ccccc4n3)cc2)n1 [[^18F]18a] : provide bone uptake
Marked response: 0.522 ± 0.116 %ID/g
